Attribution: PubChem BioAssay (NCI)

I'd be grateful if you could share measured TGI for these entries.
Tested on: OVCAR-5 ovarian
Method: NCI tumour cell line growth inhibition, 48 h

Need TGI for each of these compounds.
1. CO/N=C(\COc1ccc2oc(-c3ccccc3)cc(=O)c2c1)c1ccc(F)cc1
2. O=C(O)c1ccc(SSc2ccc(C(=O)O)cn2)nc1
3. O=c1c2ccc(Cl)cc2oc2c(CNc3ccc(S(=O)(=O)Nc4ncccn4)cc3)cccc12

Return:
["39.1 µM", "> 100 µM", "> 100 µM"]

Need TGI for each of these compounds.
1. CCN(CC)CCCCNc1c2ccc(Cl)cc2nc2ccc(OC)cc12
2. CC1=NOC(=O)/C1=C/c1ccc2c(c1)OCO2

Return:
3.33 µM
> 100 µM

Need TGI for each of these compounds.
1. COc1cc2c3c(n(CCCNCCCN)c(=O)c2cc1OC)-c1cc2c(cc1C3=O)OCO2
2. CC(C)(C)OC(=O)Nc1ccc2c(c1)C(NC(=O)Nc1cccc(C#N)c1)CC(C)(C)O2 (stereo not drawn)
3. COC1(CC[C@H](C)COC2OC(CO)C(O)C(O)C2O)O[C@H]2C[C@H]3[C@@H]4CC=C5C[C@@H](OC6OC(CO)C(OC7OC(C)C(O)C(O)C7O)C(O)C6OC6OC(C)C(O)C(O)C6O)CC[C@]5(C)[C@H]4CC[C@]3(C)[C@H]2[C@@H]1C (stereo partly drawn)

Return:
["12.6 µM", "> 100 µM", "> 35.5 µM"]

---

Test system: HOP-92 NSCLC
Method: NCI tumour cell line growth inhibition, 48 h
I'd be grateful if you could share measured TGI for these entries.

CC1SC(c2ccc(Cl)cc2Cl)N(NC(=O)C(O)c2ccccc2)C1=O (stereo not given)	> 100 µM
O=C1NC(c2ccccc2)C2(C(=O)O)CN(C3CC3)c3cc(N4CCNCC4)c(F)cc3C2N1 (stereo not given)	> 100 µM

Need TGI for each of these compounds.
1. Cc1cc(-c2ccccc2)nc2oc(=O)n(C)c12
2. CC(C)=C/C(CC(O)(C(F)(F)F)C(F)(F)F)=N\O
3. COc1cc(C(=O)c2cocc2C(=O)c2ccc3c(c2)OCO3)cc(OC)c1OC
4. CCOC(=O)/C=C/c1cccc(F)c1
5. CSc1nc(Cl)c2c(n1)Sc1nc3ccccc3n1C2O (stereo not given)
6. COC(=O)C1CCc2nnc(-c3ccccc3)n21 (stereo not given)

Return:
["> 100 µM", "> 100 µM", "35.4 µM", "> 100 µM", "26.6 µM", "> 100 µM"]

Need TGI for each of these compounds.
1. COc1ccc(C(=O)/C=C/SC(=NC#N)SC)cc1
2. O=C1c2cc3c(cc2-c2c1c1ccc(Cl)cc1c(=O)n2CCCn1ccnc1)OCO3

Return:
["> 100 µM", "0.491 µM"]

---

Test system: CCRF-CEM leukemia
Method: NCI tumour cell line growth inhibition, 48 h
Recorded endpoint: TGI

CCOC(=O)[C@@H](Cc1ccc(CCl)cc1)NC(C)=O	> 100 µM
COc1cc2cnc3c4cc(OCc5ccccc5)ccc4ccc3c2cc1OC	17.3 µM
CCOC(=O)C1=C(C)NC(c2ccco2)=C(C#N)C1c1cccc([N+](=O)[O-])c1 (stereo not drawn)	32.4 µM
C=C1C(OC(C)=O)CC(OC(C)=O)C2(C)C(OC(C)=O)C(OC(C)=O)C3=C(C)C(OC(=O)/C=C/c4ccccc4)CC(C(OC(C)=O)C12)C3(C)C (stereo not drawn)	> 100 µM
COc1ccc2c(c1)CCc1c-2n[nH]c1-c1[nH]nc2c1CCc1cc(OC)ccc1-2	> 100 µM
COC(=O)N/N=C(\C)CC(=O)Nc1ccc(Cl)cc1	> 100 µM
NC(=O)C1CCN(Cc2c(Cl)c(Cl)c(CN3CCC(C(N)=O)CC3)c(Cl)c2Cl)CC1	> 100 µM

Lab note: next compound to report on.
Enquiry: Identify TGI associated with the compound `O=C(O)c1ccc(SSc2ccc(C(=O)O)cn2)nc1`
Return: > 100 µM

---

I'd be grateful if you could share measured TGI for these entries.
Test system: SR leukemia
Method: NCI tumour cell line growth inhibition, 48 h
Numbered stars: 1 amine (or outer) side, 2 acyl side, 3 side chain; on linkers, the order of the positions; unused ones are H or OH. Bridge positions count the residues as written; N and C are the ends. Square brackets hold non-standard residues; d marks the D form. Peptide text beside a SMILES is read from it. I, II: the chains in the order shown. Actinocin(1to9) = Cc1c2oc3c(C)ccc(C(=O)[*:2])c3nc-2c(C(=O)[*:1])c(N)c1=O; NMeY = CN[CH](Cc1ccc(O)cc1)C(=O)O; Sar = CNCC(=O)O

Completed entries (count: 2):
COc1ccc(CC2C(=O)OC(C)C(NC(=O)c3c4nc5c(C(=O)NC6C(=O)NC(C(C)C)C(=O)N7CCCC7C(=O)N(C)CC(=O)N(C)C(Cc7ccc(OC)cc7)C(=O)OC6C)ccc(C)c5oc-4c(C)c(=O)c3N)C(=O)NC(C(C)C)C(=O)N3CCCC3C(=O)N(C)CC(=O)N2C)cc1 (stereo not drawn) (I: TVP[Sar][NMeY](Me) / II: TVP[Sar][NMeY](Me); ester I:1-I:C, II:1-II:C; linker I:N-II:N via Actinocin(1to9); configuration not given here)	> 0.374 µM
C[N+](C)=c1ccc2nc3c(cc(NCCCNc4cc5oc6cc(=[N+](C)C)ccc-6nc5c5ccccc45)c4ccccc43)oc-2c1	> 28.5 µM

Lab note: next molecule to report on.
Enquiry: Identify TGI associated with the molecule `CC[C@H](NC(=O)OC(C)(C)C)C(=O)NCP(=O)(OCc1ccc([N+](=O)[O-])cc1)OCc1ccc([N+](=O)[O-])cc1`
Return: > 100 µM

---

I'd be grateful if you could share measured TGI for these entries.
Test system: SNB-75 CNS
Method: NCI tumour cell line growth inhibition, 48 h
Answers are plain numbers, in µM.

COc1ccc2c(c1)CCc1c-2n[nH]c1-c1[nH]nc2c1CCc1cc(OC)ccc1-2	61.3

Lab note: next compound to report on.
Enquiry: Report measured TGI on SNB-75 CNS; entry: `CC/C(=C/c1ccc(OC)cc1OC)[N+](=O)[O-]`
Return: 16.6

---

I'd be grateful if you could share measured TGI for these entries.
Test system: NCI-H226 lung
Method: NCI tumour cell line growth inhibition, 48 h

Completed entries (count: 5):
NC(=O)NN=C1Cc2ccccc2C1	> 100 µM
CCOC(=O)CN1C(=O)c2cc([N+](=O)[O-])cc3cc([N+](=O)[O-])cc(c23)C1=O	> 100 µM
CCCCNC(=O)Cn1c2ccc(Br)cc2c2nc3ccccc3nc21	> 100 µM
COc1cc2nccc(Oc3ccc(NC(=O)c4cn(C(C)C)c(=O)n(-c5ccc(F)cc5)c4=O)cc3F)c2cc1OC	> 21.8 µM
COc1ccc([C@@H]2OC(=O)C3C2C(=O)O[C@H]3c2ccc(OC)c(OC)c2)cc1OC (stereo partly specified)	> 100 µM

Lab note: next compound to report on.
Enquiry: Report measured TGI on NCI-H226 lung; entry: COC(=O)C1CCc2nnc(-c3ccccc3)n21 (stereo unspecified)
Return: > 100 µM

---

I'd be grateful if you could share measured TGI for these entries.
Test system: HS 578T breast
Method: NCI tumour cell line growth inhibition, 48 h

Completed entries (count: 5):
Oc1ccccc1/C=N/N1C(=S)N(C23CC4CC(CC(C4)C2)C3)C(=Nc2ccccc2)C1=Nc1ccccc1	> 100 µM
CC1(C)OCC(C2OC(C)(C)OC2[C@H]2O[C@@]3(O)[C@H]4[C@H](C=CC[C@@H]42)[C@@H](OCc2ccccc2)[C@H](OCc2ccccc2)[C@H]3OCc2ccccc2)O1 (stereo partly drawn)	> 100 µM
O=C1c2cc3c(cc2CC12Cc1ccc4c(c1C2=O)CCC4)CCC3 (stereo not drawn)	> 100 µM
COc1c(N2CCN(CN3C(=O)C(=Nc4ccc(S(=O)(=O)Nc5ncccn5)cc4)c4cc(Cl)ccc43)C(C)C2)c(F)cc2c(=O)c(C(=O)O)cn(C3CC3)c12 (stereo not drawn)	42.8 µM
C[N+](C)=c1ccc2nc3c(cc(NCCCNc4cc5oc6cc(=[N+](C)C)ccc-6nc5c5ccccc45)c4ccccc43)oc-2c1	45.6 µM

Need TGI for each of these compounds.
1. COc1cc2c(cc1OCc1ccccc1)NC(=O)[C@@H]1CCCN1C2=O
2. COc1cc(CNc2oc(-c3ccccc3)c(-c3ccccc3)c2C#N)cc(CN2CCN(C)CC2)c1O
3. CCOC(=O)C(NC(=O)c1cccc(Cl)c1)(Nc1cccc(C)c1)C(F)(F)F (stereo not drawn)

Return:
> 100 µM
6.61 µM
49.4 µM

Need TGI for each of these compounds.
1. O=c1/c(=N\Nc2ccccc2)c2cccc3ccc4cccc1c4c32
2. O=C(Nc1cccc(C(F)(F)F)c1)Oc1ccc(Cl)c2cccnc12
3. NC(=O)c1ccc[n+](C2=C([O-])c3ccccc3C(=O)/C2=N\S(=O)(=O)c2ccccc2)c1
4. COc1cc2c3c(n(CCCNCCCN)c(=O)c2cc1OC)-c1cc2c(cc1C3=O)OCO2

Return:
1: > 100 µM; 2: > 24 µM; 3: 47.3 µM; 4: 42.8 µM

Need TGI for each of these compounds.
1. O=C1c2cc3c(cc2-c2c1c1ccc(Cl)cc1c(=O)n2CCCn1ccnc1)OCO3
2. Cc1cc(-c2cc(C(C)(C)C)c(O)c(C(C)(C)C)c2)c(C)cc1-c1cc(C(C)(C)C)c(O)c(C(C)(C)C)c1
3. CC(=O)Oc1ccn2nc(C)c(Br)c2c1

Return:
> 100 µM
> 100 µM
> 100 µM

Need TGI for each of these compounds.
1. CC[C@]12C=CCN3CCC4(c5cc([C@@]6(C(=O)OC)CC7CN(CCc8c6[nH]c6ccccc86)CC6CCCCC67)c(OC)cc5N(C)C4[C@](O)(C(=O)OC)C1OC(C)=O)[C@@H]32 (stereo partly drawn)
2. CN(N)c1nc(N)c(C#N)c(C#N)c1C#N
3. CNC(=S)N1CCN(C(C)=O)C1=S
4. COc1ccc(S(=O)(=O)N(C(C)=O)c2ccccc2/C=C/c2cc[n+]([O-])cc2)cc1
5. CCn1ncc2c(=O)n3ncn(-c4ccc(Br)cc4)c3nc21
6. Nc1c(N2CCOCC2)c(=O)nc2[nH]/c(=C\c3ccccc3O)c(=O)n12
7. CC(=N/NC(=S)N(C)C)/C(=N\NC(=S)N(C)C)c1ccccc1

Return:
1. < 0.01 µM
2. > 10 µM
3. 87.5 µM
4. > 10 µM
5. > 100 µM
6. > 100 µM
7. 6.26 µM

Enquiry: Identify TGI associated with the compound CC(SCc1ccccc1)C(=O)O (stereo not drawn)
Return: > 100 µM
